Sourced from patent US10287297B2

Tested on: NCI-H460
EXPERIMENTAL_ENDPOINT: GI50 (µM)
API: value field is a number in µM; no unit string.

Query the reported GI50 for NCI-H460; item: CC1=C2[C@@H](CC1)[C@]1(C)O[C@@](C3CC3)(C[C@H]1OC(=O)CO)[C@H]2OC(=O)C=Cc1ccccc1 [Compound (Is)] 18

Query the reported GI50 for NCI-H460; item: CC(=O)O[C@@H]1C[C@]2(C(C)C)O[C@@]1(C)[C@@H]1CCC(C)=C1[C@@H]2OC(=O)C=Cc1ccccc1 [(Im)] 31

Query the reported GI50 for NCI-H460; item: CC1=C2[C@@H](CC1)[C@]1(C)O[C@@](C3CCCCC3)(C[C@H]1OC(=O)CO)[C@H]2OC(=O)C=Cc1ccccc1 [(Iq)] 13

Query the reported GI50 for NCI-H460; item: CC1=C2[C@@H](CC1)[C@]1(C)O[C@@](C(C)C)(C[C@H]1OC(=O)CO)[C@H]2OC(=O)/C=C/c1ccccc1 [Compound (Ih)] 37

Query the reported GI50 for NCI-H460; item: CC1=C2[C@@H](CC1)[C@]1(C)O[C@@](C(C)C)(C[C@H]1OC(=O)CO)[C@H]2OC(=O)C1CC1c1ccccc1 (stereo partly shown) [Compound (Ij)] 16

Query the reported GI50 for NCI-H460; item: CC1=C2[C@@H](CC1)[C@]1(C)O[C@@](C(C)C)(C[C@H]1OC(=O)[C@H](C)O)[C@H]2OC(=O)C=Cc1ccccc1 [(Il)] 15

Query the reported GI50 for NCI-H460; item: CC1=C2[C@@H](CC1)[C@]1(C)O[C@@](c3ccccc3)(C[C@H]1OC(=O)CO)[C@H]2OC(=O)C=Cc1ccccc1 [(Ir)] 15
